The entries below are paired with their reported protein stability index.
B1: INTS3 (parent)
chain: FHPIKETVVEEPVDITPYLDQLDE

variants of: B1; assay: protein stability index of a GFP-peptide fusion (GPS, HEK-293T) (PSI 1-6); higher = more stable; conditions: c terminus: a fixed tail appended;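 note: lentivirally expressed fusions sorted by FACS into six bins by GFP to DsRed ratio, PSI derived from sequencing read proportions per bin multiplied by bin number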

seq string: FHPIKETVVEEPVDITPYLAQLDE
protein stability index: 3.11
--
seq string: FHPIKETVVEEPVDITPYLDQLGE
protein stability index: 2.59
--
seq string: FHPIKETVVPEPVDITPYLDQLDE
protein stability index: 2.98
--
seq string: FNPIKETVVEEPVDITPYLDQLDE
protein stability index: 5.18
--
seq string: FHPIKETVVEEPVDICPYLDQLDE
protein stability index: 3.09
--
seq string: FHPIKETVVEEPVDITPYLCQLDE
protein stability index: 2.49
--
seq string: FHPIKETVVEEPVDITPYLDSLDE
protein stability index: 2.82
--
seq string: MHPIKETVVEEPVDITPYLDQLDE
protein stability index: 5.23
--
seq string: FHPIKETVVEEPVDIFPYLDQLDE
protein stability index: 3.2
--
seq string: FHPCKETVVEEPVDITPYLDQLDE
protein stability index: 3.31
--
seq string: FHPIKETVVEAPVDITPYLDQLDE
protein stability index: 2.73
--
seq string: FHPIKETVVEEPVDLTPYLDQLDE
protein stability index: 3.25
--
seq string: FHPFKETVVEEPVDITPYLDQLDE
protein stability index: 3.4
--
seq string: FHPIKETHVEEPVDITPYLDQLDE
protein stability index: 3.19
--
seq string: FHPIKETVVEEPVDITPYVDQLDE
protein stability index: 4.03
--
seq string: FHPIKETVVERPVDITPYLDQLDE
protein stability index: 2.49
--
seq string: WHPIKETVVEEPVDITPYLDQLDE
protein stability index: 4.97
--
seq string: FHPIKTTVVEEPVDITPYLDQLDE
protein stability index: 3.28
--
seq string: FHPIKETVVEEPVDITRYLDQLDE
protein stability index: 2.39
--
seq string: FHIIKETVVEEPVDITPYLDQLDE
protein stability index: 2.66
--
seq string: FHPIKETVVEEPVDITPYLDELDE
protein stability index: 3.62
--
seq string: FHPIKETVVEEPVDIPPYLDQLDE
protein stability index: 3
